# System: Plasmodium falciparum
# procedure-summary: Antiplasmodial activity against CQ-resistant Plasmodium falciparum K1
# Format: functional, organism-based
observation-type: IC50 (nM)
One number for each entry, in nM.

Check out these entries, answers already filled in.
{"smiles-structure": "O=C(N[C@H](c1ccccc1)[C@H](O)C(=O)NCc1cn(CCNc2ccnc3cc(Cl)ccc23)nn1)c1ccccc1", "IC50 [nM]": 390}
{"smiles-structure": "O=C(N[C@H](c1ccccc1)[C@H](O)C(=O)NCc1cn(CNc2ccnc3cc(Cl)ccc23)nn1)c1ccccc1", "IC50 [nM]": 390}
{"smiles-structure": "C[C@H]1[C@@H](OCc2ccc(C(=O)N(CCNc3ccnc4cc(Cl)ccc34)CC(=O)NC3CCCCC3)cc2)O[C@@H]2O[C@@]3(C)CC[C@H]4[C@H](C)CC[C@@H]1[C@@]24OO3", "IC50 [nM]": 19}

Let us move to another entry and its IC50.
Query: Report IC50 for CCN1CNc2cc(Nc3ccnc4cc(Cl)ccc34)ccc2C1 please.
Result: 220

---

# System: Plasmodium falciparum
# procedure-summary: Antiplasmodial activity against CQ-sensitive Plasmodium falciparum D10
# Type: functional, organism-based
observation-type: pIC50
One number for each entry, as −log10 of the molar value.

Check out these entries, answers already filled in.
{"smiles-structure": "C[C@H]1[C@@H](OCc2ccc(C(=O)N(CCNc3ccnc4cc(Cl)ccc34)CC(=O)NC(C)(C)C)cc2)O[C@@H]2O[C@@]3(C)CC[C@H]4[C@H](C)CC[C@@H]1[C@@]24OO3", "observed-measurement": 7.59}
{"smiles-structure": "C[C@H]1[C@@H](OCc2ccc(C(=O)N(CCNc3ccnc4cc(Cl)ccc34)CC(=O)NC3CCCCC3)cc2)O[C@@H]2O[C@@]3(C)CC[C@H]4[C@H](C)CC[C@@H]1[C@@]24OO3", "observed-measurement": 7.59}

Query: Report pIC50 for C[C@H]1[C@@H](OCc2cccc(C(=O)N(CCCCNc3ccnc4cc(Cl)ccc34)CC(=O)NC3CCCCC3)c2)O[C@@H]2O[C@@]3(C)CC[C@H]4[C@H](C)CC[C@@H]1[C@@]24OO3 please.
Result: 7.59

---

# Tested on: Plasmodium berghei
# procedure-summary: Antimalarial activity against Plasmodium berghei infected in human HuH7 cells assessed as inhibition of liver cell infection
# Type: functional, organism-based
# details: Huh-7, Liver
Record form. Attribute: pIC50. Fill in for each entry.
Numbers only, as −log10 of the molar value.

Check out these entries, answers already filled in.
{"compound": "COc1cc(NC(C)CCCNC(=O)C2CCC3(CC2)OOC2(OO3)C3CC4CC(C3)CC2C4)c2ncccc2c1 (centres undefined)", "pIC50": 6.48}
{"compound": "COc1cc(NC(C)CCCNC(=O)CC2CCC3(CC2)OOC2(OO3)C3CC4CC(C3)CC2C4)c2ncccc2c1 (centres undefined)", "pIC50": 6.48}
{"compound": "COc1cc(NC(C)CCCN)c2ncccc2c1 (centres undefined)", "pIC50": 5.12}

Let us move to another entry and its pIC50.
Query: Report pIC50 for COc1cc(NC(C)CCCNCC2CCC3(CC2)OOC2(OO3)C3CC4CC(C3)CC2C4)c2ncccc2c1 (centres undefined) please.
Result: 6.48
